- tested system: human ACC2 (Homo sapiens (Human))
- Sequence (O00763 129-2458): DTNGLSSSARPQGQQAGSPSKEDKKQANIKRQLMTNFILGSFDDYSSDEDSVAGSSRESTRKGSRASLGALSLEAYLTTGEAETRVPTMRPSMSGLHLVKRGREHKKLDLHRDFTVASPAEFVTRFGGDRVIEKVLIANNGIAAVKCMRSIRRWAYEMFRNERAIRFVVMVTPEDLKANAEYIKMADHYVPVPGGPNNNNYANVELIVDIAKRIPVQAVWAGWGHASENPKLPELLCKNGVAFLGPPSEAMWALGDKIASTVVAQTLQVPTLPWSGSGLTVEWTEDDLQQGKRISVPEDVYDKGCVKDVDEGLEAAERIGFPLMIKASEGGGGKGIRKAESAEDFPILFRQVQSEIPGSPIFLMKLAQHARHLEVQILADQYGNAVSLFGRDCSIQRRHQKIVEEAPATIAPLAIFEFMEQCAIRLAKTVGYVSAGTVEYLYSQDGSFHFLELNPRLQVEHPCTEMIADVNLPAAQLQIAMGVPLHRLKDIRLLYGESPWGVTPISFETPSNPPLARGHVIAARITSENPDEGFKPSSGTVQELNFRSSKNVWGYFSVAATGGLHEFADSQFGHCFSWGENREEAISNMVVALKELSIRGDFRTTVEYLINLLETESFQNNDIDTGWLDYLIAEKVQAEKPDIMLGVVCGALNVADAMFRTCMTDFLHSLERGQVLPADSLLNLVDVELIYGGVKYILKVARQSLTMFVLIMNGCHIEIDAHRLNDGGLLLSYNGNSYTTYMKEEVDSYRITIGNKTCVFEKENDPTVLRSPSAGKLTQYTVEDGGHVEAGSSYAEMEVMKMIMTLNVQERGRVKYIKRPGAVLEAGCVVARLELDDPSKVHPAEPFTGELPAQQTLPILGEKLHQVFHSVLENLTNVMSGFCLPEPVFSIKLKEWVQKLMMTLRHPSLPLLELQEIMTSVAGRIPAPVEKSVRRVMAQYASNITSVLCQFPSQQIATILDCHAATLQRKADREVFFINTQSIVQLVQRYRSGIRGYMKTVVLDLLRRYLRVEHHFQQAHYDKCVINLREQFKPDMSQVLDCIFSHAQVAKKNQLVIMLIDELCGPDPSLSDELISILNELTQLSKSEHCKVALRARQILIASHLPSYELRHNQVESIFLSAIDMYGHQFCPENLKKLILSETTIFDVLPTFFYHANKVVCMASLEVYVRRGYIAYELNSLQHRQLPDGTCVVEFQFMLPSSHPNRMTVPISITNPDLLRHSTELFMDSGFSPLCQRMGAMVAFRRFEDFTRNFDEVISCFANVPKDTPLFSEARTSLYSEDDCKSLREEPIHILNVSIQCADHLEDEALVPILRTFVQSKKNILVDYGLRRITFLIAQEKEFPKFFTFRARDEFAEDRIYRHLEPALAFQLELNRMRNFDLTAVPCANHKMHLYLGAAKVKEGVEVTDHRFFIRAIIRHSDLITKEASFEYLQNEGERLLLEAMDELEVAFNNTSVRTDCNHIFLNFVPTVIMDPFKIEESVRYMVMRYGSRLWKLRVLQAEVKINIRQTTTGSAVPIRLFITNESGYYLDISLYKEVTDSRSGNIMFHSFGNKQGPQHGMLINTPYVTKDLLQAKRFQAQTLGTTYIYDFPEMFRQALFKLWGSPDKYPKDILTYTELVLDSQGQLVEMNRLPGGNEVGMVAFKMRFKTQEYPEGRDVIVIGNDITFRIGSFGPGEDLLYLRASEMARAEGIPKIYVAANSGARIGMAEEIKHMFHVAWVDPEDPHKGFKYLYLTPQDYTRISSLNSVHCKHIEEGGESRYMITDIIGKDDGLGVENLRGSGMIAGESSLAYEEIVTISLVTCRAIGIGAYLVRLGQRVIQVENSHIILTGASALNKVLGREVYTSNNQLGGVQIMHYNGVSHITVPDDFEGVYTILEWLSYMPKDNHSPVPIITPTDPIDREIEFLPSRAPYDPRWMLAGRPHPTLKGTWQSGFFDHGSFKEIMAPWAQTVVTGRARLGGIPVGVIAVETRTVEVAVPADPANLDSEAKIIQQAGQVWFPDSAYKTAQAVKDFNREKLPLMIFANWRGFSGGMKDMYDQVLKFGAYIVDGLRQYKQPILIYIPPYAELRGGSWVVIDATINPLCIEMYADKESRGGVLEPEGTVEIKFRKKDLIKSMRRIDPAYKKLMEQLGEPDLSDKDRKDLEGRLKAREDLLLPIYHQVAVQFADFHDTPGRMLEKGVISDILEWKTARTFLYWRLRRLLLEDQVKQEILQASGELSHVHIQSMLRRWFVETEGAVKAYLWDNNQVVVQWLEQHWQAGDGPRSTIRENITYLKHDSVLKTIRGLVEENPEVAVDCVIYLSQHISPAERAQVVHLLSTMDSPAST
pIC50: −log10 of the molar value.
Lab note: compare pIC50 against 7. Equal or greater, write yes. Smaller, write no.

- compound: "CCOc1ccc(N2CC[C@@H](Oc3ccc([C@H](C)NC(=O)c4sc(NC(=O)COC(C)=O)nc4C)cc3)C2)cc1"
  cat: "yes"
- compound: "CC(=O)N[C@@H](C)c1ccc(OC2CCN(c3ccc(OC4CCOC4)cc3)C2)cc1 (some centres unmarked)"
  cat: "no"
- compound: "CC(=O)N[C@@H](C)c1ccc(OC2CCN(c3cc4c(cc3C#N)OCCO4)C2)cc1 (some centres unmarked)"
  cat: "no"
- compound: "CCOc1ccc(N2CC[C@H](Oc3ccc([C@H](C)NC(C)=O)cc3)C2)cc1"
  cat: "no"
- compound: "CC(=O)N[C@@H](C)c1ccc(OC2CCN(c3ccc(OC4CC4)cc3C#N)C2)cc1 (some centres unmarked)"
  cat: "no"
- compound: "CC(=O)N[C@@H](C)c1ccc(OC2CCN(c3cccc(F)c3C)C2)cc1 (some centres unmarked)"
  cat: "no"

These entries and their values trace back to patent US9169205B2.
